FYI, the data here is from the supplement of paper PMC9732359.

experiment: protein stability index of a GFP-peptide fusion (yeast GPS) (PSI 1-4); higher = more stable; sorted into four equal gates, so the index is relative within each strain; conditions: doa10∆
observable: protein stability index

sequence.code: PSFTFGGSTTNNTTTTS [YOR098C/NUP1]
assay.result: 3.04

sequence.code: KNNLLIPDLSIQNDIYL [RPN12]
assay.result: 2.93

sequence.code: LLPTNNGQPLNQNFSLT [GRR1]
assay.result: 3.06

sequence.code: CLENARSQISEKDAKIN [SIR4]
assay.result: 3.09

sequence.code: DFQPTELFDILSTSEDV [IRR1]
assay.result: 3.04

sequence.code: GFERLTVNEPQMSDKHA [SRB7]
assay.result: 3.06

sequence.code: KGKDFEITAKEVYDFTH [FAS1]
assay.result: 3.09
